- System: Cox standard strain albino male mice
- assay: mouse writhing assay (acetic acid-induced writhing)
- Format: in vivo
- assay.setup: sc, subcutaneous (s.c.) administration, dose required to inhibit induced writhing by fifty percent, writhing induced by i.p. acetic acid (0.60 percent), 5 mice per group, read-out: Mouse Writhing ED50 s.c.
Structures can show the parent of a compound that is named as a salt.
Binary call on ED50 with cut-off 30 mg/kg: strictly below means Fulfilled, and equality or higher means Not fulfilled.

[[record]]
compound = "C[C@@]12CCN(CCc3ccccc3)C[C@@H]1CCc1ccc(O)cc12 (relative stereo)"
answer_label = "Fulfilled"

[[record]]
compound = "CCC[C@]12CCNC[C@H]1CCc1ccc(OC)cc12.Cl (relative stereo)"
answer_label = "Not fulfilled"

[[record]]
compound = "CCC[C@@]12CCN(C)C[C@@H]1CCc1ccc(O)cc12 [Example 4, hydrochloride]"
answer_label = "Fulfilled"

[[record]]
compound = "C[C@@]12CCNC[C@@H]1CCc1ccc(O)cc12"
answer_label = "Not fulfilled"

[[record]]
compound = "C[C@]12CCN(CC3CC3)C[C@H]1CCc1ccc(O)cc12 (relative stereo)"
answer_label = "Not fulfilled"

[[record]]
compound = "COc1ccc2c(c1)[C@]1(C)CCNC[C@@H]1CC2 [Example 5, hydrochloride]"
answer_label = "Not fulfilled"

[[record]]
compound = "CCC[C@]12CCN(C)C[C@H]1CCc1ccc(OC)cc12.Cl (relative stereo)"
answer_label = "Fulfilled"

[[record]]
compound = "COc1ccc2c(c1)[C@]1(C)CCN(C)C[C@@H]1CC2 [Example 1, hydrochloride]"
answer_label = "Fulfilled"

[[record]]
compound = "C=CCN1CC[C@]2(CCC)c3cc(O)ccc3CC[C@@H]2C1 (relative stereo)"
answer_label = "Fulfilled"

[[record]]
compound = "CCC[C@]12CCNC[C@H]1CCc1ccc(O)cc12 (relative stereo)"
answer_label = "Not fulfilled"

[[record]]
compound = "C=CCN1CC[C@]2(C)c3cc(O)ccc3CC[C@@H]2C1 (relative stereo)"
answer_label = "Fulfilled"

[[record]]
compound = "CCC[C@]12CCN(CC3CC3)C[C@H]1CCc1ccc(O)cc12 (relative stereo)"
answer_label = "Not fulfilled"

[[record]]
compound = "CCC[C@]12CCN(CCc3ccccc3)C[C@H]1CCc1ccc(O)cc12 (relative stereo)"
answer_label = "Not fulfilled"

[[record]]
compound = "CN1CC[C@]2(C)c3cc(O)ccc3CC[C@@H]2C1 (relative stereo)"
answer_label = "Fulfilled"

[[record]]
compound = "CCOC(=O)C1(c2ccccc2)CCN(C)CC1 [Meperidine, reference compound]"
answer_label = "Fulfilled"


From: patent EP0106486A2
